Hey, just so you know, these numbers are from paper PMC2766634.

- MEASUREMENT_DESCRIPTION: Cyclic voltammetry in DMSO
- Assay type: physicochemical
- RECORDED_CONDITIONS: cyclic voltammetry, 0.10 M NBu4PF6 in DMSO, 25 °C, 100 mV/s
MEASUREMENT_TYPE: E1/2 in DMSO (half-wave potential, 0/−1 reduction), mean ± SE (V vs Fc)
API: value field is a number in V vs Fc; no unit string.

Report E1/2 in DMSO (half-wave potential, 0/−1 reduction), mean ± SE for `Cn1c([N+](=O)[O-])cnc1CCc1ccccc1` please. −1.593

I'd like to know its E1/2 in DMSO (half-wave potential, 0/−1 reduction), mean ± SE. The compound in question is `Cn1ccnc1/C=C/c1ncc([N+](=O)[O-])n1C` −1.497

Can you share its E1/2 in DMSO (half-wave potential, 0/−1 reduction), mean ± SE? I mean this compound: `Cn1c([N+](=O)[O-])cnc1/C=C/c1ccccc1-c1ccccc1` −1.512

// returns reported E1/2 in DMSO (half-wave potential, 0/−1 reduction), mean ± SE for input `Cn1c([N+](=O)[O-])cnc1/C=C/c1ccco1` −1.504

Request the reported E1/2 in DMSO (half-wave potential, 0/−1 reduction), mean ± SE associated with `Cn1c([N+](=O)[O-])cnc1/C=C/c1ccc(Br)cc1` −1.506

Give its E1/2 in DMSO (half-wave potential, 0/−1 reduction), mean ± SE value. Item: `Cc1cc(C)c(/C=C/c2ncc([N+](=O)[O-])n2C)c(C)c1` −1.529

Recorded E1/2 in DMSO (half-wave potential, 0/−1 reduction), mean ± SE for `Cn1c([N+](=O)[O-])cnc1/C=C/c1cccc(I)c1` , please? −1.494

State the recorded E1/2 in DMSO (half-wave potential, 0/−1 reduction), mean ± SE for this entry: `Cn1c([N+](=O)[O-])cnc1/C=C/c1ccccc1` −1.517

Given the compound `Cn1c([N+](=O)[O-])cnc1/C=C/c1cccc2ccccc12` , what is its reported E1/2 in DMSO (half-wave potential, 0/−1 reduction), mean ± SE? −1.502

Any idea what its E1/2 in DMSO (half-wave potential, 0/−1 reduction), mean ± SE is? The compound is `Cn1c([N+](=O)[O-])cnc1/C=C/c1ccccc1Br` −1.481

I am curious: what E1/2 in DMSO (half-wave potential, 0/−1 reduction), mean ± SE value has been reported for Cn1c([N+](=O)[O-])cnc1C(O)C(O)c1ccc(Br)cc1 (centres unmarked) ? −1.544

What E1/2 in DMSO (half-wave potential, 0/−1 reduction), mean ± SE value was documented for this compound, `Cn1c([N+](=O)[O-])cnc1/C=C/c1cccs1` ? −1.528

Need E1/2 in DMSO (half-wave potential, 0/−1 reduction), mean ± SE of `Cn1c([N+](=O)[O-])cnc1/C=C/c1cccc(F)c1` , thanks. −1.502

What value of measured E1/2 in DMSO (half-wave potential, 0/−1 reduction), mean ± SE is listed for `Cn1c([N+](=O)[O-])cnc1/C=C/c1cccc(Br)c1` ? −1.497

Consider the compound shown here: `COc1ccc(/C=C/c2ncc([N+](=O)[O-])n2C)c(OC)c1OC` What is its recorded E1/2 in DMSO (half-wave potential, 0/−1 reduction), mean ± SE? −1.584

Item `Cn1c([N+](=O)[O-])cnc1/C=C/c1ccsc1` has what recorded E1/2 in DMSO (half-wave potential, 0/−1 reduction), mean ± SE? −1.508

Fill in the blank: the reported E1/2 in DMSO (half-wave potential, 0/−1 reduction), mean ± SE of `Cc1ccccc1/C=C/c1ncc([N+](=O)[O-])n1C` is ____. −1.512

So what does the record say about E1/2 in DMSO (half-wave potential, 0/−1 reduction), mean ± SE for `Cn1c([N+](=O)[O-])cnc1CCc1ccc(Br)cc1` ? −1.592

Which E1/2 in DMSO (half-wave potential, 0/−1 reduction), mean ± SE is reported for this compound? `Cn1c([N+](=O)[O-])cnc1/C=C/c1ccc(Cl)cc1Cl` −1.469

What E1/2 in DMSO (half-wave potential, 0/−1 reduction), mean ± SE value was documented for this compound, `COc1cccc(/C=C/c2ncc([N+](=O)[O-])n2C)c1` ? −1.580

Query: E1/2 in DMSO (half-wave potential, 0/−1 reduction), mean ± SE; subject: `Cc1cccc(/C=C/c2ncc([N+](=O)[O-])n2C)c1` −1.516

For the compound shown here, `Cn1c([N+](=O)[O-])cnc1/C=C/c1ccc2ccccc2c1` , give the reported E1/2 in DMSO (half-wave potential, 0/−1 reduction), mean ± SE. −1.509

Quick one: E1/2 in DMSO (half-wave potential, 0/−1 reduction), mean ± SE of `Cn1c([N+](=O)[O-])cnc1/C=C/c1ccc(Cl)cc1` ? −1.503

Request the reported E1/2 in DMSO (half-wave potential, 0/−1 reduction), mean ± SE associated with `Cn1c([N+](=O)[O-])cnc1/C=C/c1ccc(OC(F)(F)F)cc1` −1.487

Param item = `Cn1c([N+](=O)[O-])cnc1/C=C/c1ccccc1Cl` ; retrieve measured E1/2 in DMSO (half-wave potential, 0/−1 reduction), mean ± SE. −1.486

E1/2 in DMSO (half-wave potential, 0/−1 reduction), mean ± SE lookup needed for `Cn1c([N+](=O)[O-])cnc1/C=C/c1cccc(Cl)c1` , thanks. −1.492

What does the data say about its E1/2 in DMSO (half-wave potential, 0/−1 reduction), mean ± SE? Entry: Cc1ccc(C(O)C(O)c2ncc([N+](=O)[O-])n2C)cc1 (centres unmarked) −1.557

Field request: E1/2 in DMSO (half-wave potential, 0/−1 reduction), mean ± SE | item: `Cc1ccc(CCc2ncc([N+](=O)[O-])n2C)cc1` −1.592

Sample `Cc1ccc(/C=C/c2ncc([N+](=O)[O-])n2C)cc1` — what was its E1/2 in DMSO (half-wave potential, 0/−1 reduction), mean ± SE? −1.522

Query: E1/2 in DMSO (half-wave potential, 0/−1 reduction), mean ± SE; subject: `CCOC(OCC)c1ccc(/C=C/c2ncc([N+](=O)[O-])n2C)cc1` −1.518
